Hello, the source for this data is ChEMBL document CHEMBL3865847, in case you need it.

- EXPERIMENTAL PROTOCOL: Cytotoxicity against human SKOV3 cells assessed as cell growth inhibition after 48 hrs by neutral red dye based assay
- Format: functional
- MEASUREMENT CONTEXT: SK-OV-3, 48 h
IC50 strictly under 1 µg/mL means yes; at 1 µg/mL or over means no.

[in] Hello, I'm reviewing records and need to know if IC50 of NC(=O)C[n+]1ccc2ccnc3c2c1-c1ccccc1-3.[Br-] is below 1 µg/mL. Could you check?
[out] no

[in] Lab note: IC50 threshold 1 µg/mL. Does this compound come in strictly under it? [Br-].c1ccc(C[n+]2ccc3c4c(nc5cc6c(cc53)OCO6)-c3ccccc3-c42)cc1
[out] yes

[in] Consider the compound Cc1cc2c3c(nc4ccccc42)-c2ccccc2-c3[n+]1C.[I-] . Is its IC50 strictly less than 1 µg/mL?
[out] no

[in] Given [Br-].c1ccc(C[n+]2ccc3c4c(nc5ccccc53)-c3ccccc3-c42)cc1 , is recorded IC50 strictly lower than 1 µg/mL?
[out] no

[in] Field: below-cutoff. Rule: recorded IC50 strictly less than 1 µg/mL. Subject: C[n+]1ccc2c3c(nc4ccccc42)-c2ccccc2-c31.Cc1ccc(S(=O)(=O)[O-])cc1
[out] no

[in] # TODO verify IC50 < 1 µg/mL strictly for this compound: O=C(C[n+]1ccc2ccnc3c2c1-c1ccccc1-3)c1ccccc1.[Br-]
[out] no

[in] Lab note: IC50 threshold 1 µg/mL. Does this compound come in strictly under it? C[n+]1ccc2c3c(nc4ccccc42)-c2ccccc2-c31.[I-]
[out] no

[in] Does O=[N+]([O-])c1ccc(C[n+]2ccc3ccnc4c3c2-c2ccccc2-4)cc1.[Br-] have IC50 strictly under 1 µg/mL?
[out] yes

###

- System: Cryptococcus neoformans
- EXPERIMENTAL PROTOCOL: Antimicrobial activity against Cryptococcus neoformans ATCC 52657
- Format: functional
Give MIC80 for every item shown.
Quick note: give the figure in µg/mL, leave out the unit.

[in] Give Cryptococcus neoformans MIC80 for the following compound: C[n+]1ccc2cc(-c3ccccc3)nc3c2c1-c1ccccc1-3.[I-]
[out] 0.78

[in] Report its MIC80 with Cryptococcus neoformans as the test system: Fc1ccc2c(c1)-c1c3c-2nccc3cc[n+]1Cc1ccccc1.[Br-]
[out] 0.78

[in] Look up Cryptococcus neoformans data: MIC80 of Cc1cc2cc[n+](Cc3ccccc3)c3c2c(n1)-c1ccccc1-3.[Br-] , then report it.
[out] 1.56

[in] Provide measured MIC80 on Cryptococcus neoformans for Fc1ccc(C[n+]2ccc3ccnc4c3c2-c2ccccc2-4)cc1.[Br-] please.
[out] 3.12

[in] Report value: MIC80, system: Cryptococcus neoformans, compound: O=C(C[n+]1ccc2ccnc3c2c1-c1ccccc1-3)c1ccccc1.[Br-]
[out] 25

###

- EXPERIMENTAL PROTOCOL: Cytotoxicity against African green monkey Vero cells assessed as cell growth inhibition after 48 hrs by neutral red dye based assay
- Format: toxicity, Chlorocebus sabaeus
So I've got a bunch of molecules here, and I need their IC50 at 48 h values.

[in] Read off the recorded IC50 at 48 h for NC(=O)C[n+]1ccc2ccnc3c2c1-c1ccccc1-3.[Br-]
[out] > 10 µg/mL

[in] Output measured IC50 at 48 h for this item: c1ccc2c(c1)-c1nccc3ccnc-2c13 [EUPOLAURIDINE]
[out] > 10 µg/mL

[in] Entry COc1cccc2c1C(=O)c1c(O)c3c(c(O)c1C2=O)C[C@@](O)(C(=O)CO)C[C@@H]3O[C@H]1C[C@H](N)[C@H](O)[C@H](C)O1 [DOXORUBICIN] needs its IC50 at 48 h filled in; supply it.
[out] > 10 µg/mL
